target: PDGF-BB (platelet-derived growth factor BB) (Homo sapiens) (UniProt P01127); assay: filter; settings: NapdU at P; C3 spacer at 17
Sequence (P01127 82-190): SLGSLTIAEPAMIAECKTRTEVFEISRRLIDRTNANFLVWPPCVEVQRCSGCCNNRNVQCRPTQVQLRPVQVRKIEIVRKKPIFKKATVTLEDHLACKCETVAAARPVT
Readout name: pKd
Conceptually, pKd converts a concentration in mol/L into minus its log10.

[ask] What value of pKd has been reported for the following sequence? CGACAGCATGTATGCAATCT [5169-4_75]
[reply] 9.85

---

molecular target: PDGF-BB (platelet-derived growth factor BB) (Homo sapiens); assay: filter; conditions: NapdU at P; 2'-OMe 1,18,20
Readout name: Kd (nM)
Express the result in nM but write the number alone.

[ask] Could you share what Kd was measured for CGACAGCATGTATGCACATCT [5169-4_106] , tested on PDGF-BB (platelet-derived growth factor BB) (Homo sapiens)?
[reply] 0.016

---

target: PDGF-BB (platelet-derived growth factor BB) (Homo sapiens); experiment: filter; settings: NapdU at P; 2'-OMe 7,17,21
Readout name: Kd (pM)
Give the value in pM but do not write pM after it.

[ask] What does the data say about its Kd? Entry: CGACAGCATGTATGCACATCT [5169-4_114]
[reply] 38

---

molecular target: PDGF-BB (platelet-derived growth factor BB) (Homo sapiens) (UniProt P01127); assay: filter; conditions: Bn-dU; C3 linkers; 2'-OMe
Readout name: Kd

• TTACGTTACGCGTTTATAGCG [4149-8_304] = > 0.01 µM

Note: attention shifts to another entry.
[ask] If you can, please state the reported Kd value of TTACGCCGTTACACGCGTTTATAGCG [4149-8_102] .
[reply] > 0.01 µM

---

Tested on: VEGF-165 (Homo sapiens), P15692-4
Sequence: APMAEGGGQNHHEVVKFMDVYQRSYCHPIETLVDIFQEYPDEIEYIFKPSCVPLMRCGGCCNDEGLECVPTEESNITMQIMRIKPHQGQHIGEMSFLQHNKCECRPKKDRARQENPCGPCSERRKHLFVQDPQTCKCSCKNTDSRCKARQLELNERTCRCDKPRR
Test: filter
Settings: Bn-dU, Nap-dU; C3; 1 Heg linker; 2'-OMe; VEGF
Readout name: pKd
Field pKd (float): negative decimal logarithm of the concentration in molar.

[ask] Please report the recorded pKd for TTACGTTACACGCGTTTATAGCGCCGTTCAAGTGCTTTAGATTTAAATG [4149-8_318] .
[reply] 9.57

---

Test system: VEGF-121 (Homo sapiens), P15692-9
Sequence: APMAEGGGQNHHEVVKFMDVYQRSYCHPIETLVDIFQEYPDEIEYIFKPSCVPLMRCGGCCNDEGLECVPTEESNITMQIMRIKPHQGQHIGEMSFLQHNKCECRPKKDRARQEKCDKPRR
Assay: filter
Conditions: NapdU at P; 2'-OMe 5
Readout name: Kd (nM)
State the answer as a number, implicitly in nM.

[ask] Find the measured Kd: item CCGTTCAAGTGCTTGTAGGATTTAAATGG [4867-31_155] , target or system VEGF-121 (Homo sapiens), P15692-9.
[reply] 3.3

---

System: VEGF-121 (Homo sapiens), P15692-9
Sequence: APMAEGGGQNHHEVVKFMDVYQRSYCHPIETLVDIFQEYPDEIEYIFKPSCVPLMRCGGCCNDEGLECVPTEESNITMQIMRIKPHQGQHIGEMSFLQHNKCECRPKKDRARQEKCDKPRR
Test: filter
Details: Z BndU, P NapdU, M MBndU, superscript 1 2'-OMe, C3 spacer, Heg linkers; 5'-amine; Table 20 gives 3.74E-11
Readout name: pKd
Please keep in mind that pKd is minus log10 of the molar concentration; only the number is needed.

[ask] // query pKd value for entry TTACGTTACCGCGTTTATAGCGCCGTTCAAGTGCTTGTAGGATTTAAATGG [4149-8_401 (PDGF_379-HHH-VEGF_192)]
[reply] 10.57

Source of measurements: patent US20160177307
